Measured values drawn from patent US12285489B2 for this set.

# Tested on: S. aureus
# test summary: Antimicrobial susceptibility (MIC/MBEC), standard assays in polystyrene wells
# Format: cell-based
# particulars: Staphylococcus aureus; S. aureus, polystyrene wells; read-out: MIC
property measured: MIC (µg/mL)

Recorded MIC, per entry:
Cn1nnc(-c2ccc(-c3ccc(N4C[C@H](COC(=O)c5ccc(CC(P(=O)(O)O)P(=O)(O)O)cc5)OC4=O)cc3F)cn2)n1: 4
O=C(O)c1cn(C2CC2)c2cc(N3CCNCC3)c(F)cc2c1=O: 0.5
Cn1nnc(-c2ccc(-c3ccc(N4C[C@H](COC(=O)Nc5ccc(CC(P(=O)(O)O)P(=O)(O)O)cc5)OC4=O)cc3F)cn2)n1: 16
COc1c(N2C[C@@H]3CCCN[C@@H]3C2)c(F)cc2c(=O)c(C(=O)O)cn(C3CC3)c12: 0.05

I. Cn1nnc(-c2ccc(-c3ccc(N4C[C@H](CO)OC4=O)cc3F)cn2)n1
II. CN(C)c1ccc(O)c2c1C[C@H]1C[C@H]3[C@H](N(C)C)C(O)=C(C(N)=O)C(=O)[C@@]3(O)C(O)=C1C2=O
# input Between these two entries, I and II , state which has the higher MIC. Output the label that corresponds to your choice.
# output I
(I: 0.5 µg/mL, II: 0.25 µg/mL)

====

# Test system: S. aureus
# test summary: Antimicrobial susceptibility (MIC/MBEC), standard assays in polystyrene wells
# Assay type: cell-based
# particulars: S. aureus, polystyrene wells
property measured: MBEC (µg/mL)
State the answer as a number, implicitly in µg/mL.

Cn1nnc(-c2ccc(-c3ccc(N4C[C@H](COC(=O)Nc5ccc(CC(P(=O)(O)O)P(=O)(O)O)cc5)OC4=O)cc3F)cn2)n1: 32

# input Reported MBEC for S. aureus, given "O=C(O)c1cn(C2CC2)c2cc(N3CCNCC3)c(F)cc2c1=O" ?
# output 32

# input And "Cn1nnc(-c2ccc(-c3ccc(N4C[C@H](COC(=O)c5ccc(CC(P(=O)(O)O)P(=O)(O)O)cc5)OC4=O)cc3F)cn2)n1" ?
# output 16
